# System: EKVX NSCLC
# method: NCI tumour cell line growth inhibition, 48 h
Is TGI at least 60 µM? Then t. If not, f.

Check the entry O=C1c2ccccc2C(=O)c2c1ccc1c2N=C(c2ccc(F)cc2)CC(c2ccc(Cl)c(Cl)c2)N1 (stereo not given) : does TGI equal or exceed 60 µM?
f

Reported TGI reaches at least 60 µM for CN(C)C(=S)NN=C(c1ccccn1)c1ccccn1 ?
f

Is TGI at least 60 µM? Consider COc1c(OC)c(O)c2c(=O)c(OC)c(-c3ccc4c(c3)OCO4)oc2c1O
t

Assess whether reported TGI for CCOC(=O)c1c2c(n(-c3ccc(OC)cc3)c1C)C(=O)C(=O)c1ccccc1-2 sits at 60 µM or higher.
f

Check if TGI >= 60 µM (inclusive). Item: O=C1CCC2CCc3cccc4oc1c2c34 (stereo not given)
t

Confirm if TGI reported for the compound Nc1nc2c(c3ncccc13)C(c1ccc(Cl)c(Cl)c1)Cc1ncccc1-2 (stereo not given) is 60 µM or above.
f

For this compound, is measured TGI 60 µM or higher? O=C(Nc1nnc(-c2ccccc2)o1)C(SC(=S)N1CCOCC1)c1ccccc1 (stereo not given)
f

Identify whether the reported TGI of the following compound is 60 µM or greater: OCCCCC#Cc1ccccc1C#Cc1ccccc1F
t

Check if TGI >= 60 µM (inclusive). Item: O=CN1N=C(c2ccc(Nc3ccnc4cc(Cl)ccc34)cc2)CC1c1ccccc1 (stereo not given)
t
